Test system: DLD1
Experiment: TCF/Wnt firefly luciferase reporter signal relative to plate median (fraction of plate median); higher = higher Wnt reporter signal
Details: 5 µM; treatment time 24 h; reporter: 7TFP
Task for the reader: assign each of the following compounds its reported TCF/Wnt firefly luciferase reporter signal.
Numbers only.

| compound | testedTarget | quantitativeReadout |
| --- | --- | --- |
| Cc1cc(OC(=O)c2c(C)cc(O)cc2O)cc(O)c1C(=O)O | DLD1 | 1.03 |
| COC(=O)[C@@H]1[C@H]2C[C@H]3c4[nH]c5ccccc5c4CCN3C[C@@H]2CC[C@@H]1O | DLD1 | 0.919 |
| Cc1cc(O)cc(=O)o1 | DLD1 | 0.988 |

Please look at the items below and tell me TCF/Wnt firefly luciferase reporter signal for each one, in order.
1. CC1CCC(NC(=O)N(CCCl)N=O)CC1 (stereo unspecified)
2. CC(=O)N[C@@H](CS)C(=O)O
3. CCC(=O)OCC(=O)[C@@]1(OC(=O)CC)[C@@H](C)C[C@H]2[C@@H]3CCC4=CC(=O)C=C[C@]4(C)[C@@]3(F)[C@@H](O)C[C@@]21C

Key:
1. 1.08
2. 1.1
3. 0.876

* * *

System: DLD1
Test: cell viability (CellTiter-Glo) relative to plate median (fraction of plate median); higher = more viable cells
Details: 5 µM; treatment time 24 h; reporter: 7TFP
Binarize cell viability at 1; below is True, at or above is False.

For orientation, consider the following solved cases.
| compound | testedTarget | assignedLabel |
| --- | --- | --- |
| O=C(O)c1c2ccccc2cc2ccccc12 | DLD1 | True |
| COc1ccc(CCC(=O)c2c(O)cc(O[C@@H]3O[C@H](CO)[C@@H](O)[C@H](O)[C@H]3O[C@@H]3O[C@@H](C)[C@H](O)[C@@H](O)[C@H]3O)cc2O)cc1O | DLD1 | True |
| NC(C(=O)O)C(O)C(=O)O (stereo not drawn) [d,l-threo-3-HYDROXYASPARTIC ACID] | DLD1 | True |
| COc1ccc2c(c1)OC[C@@H](Cc1ccc(OC)c(OC)c1)[C@H]2O | DLD1 | False |
| COc1cc(O)c(C(C)=O)c(OC)c1 | DLD1 | False |

Exercise: Say whether its cell viability is strictly beneath 1. Entry: c1ccc2c(c1)CN1CCCC1=N2
Key: False

* * *

Test system: SW480
Assay: cell viability (CellTiter-Glo) relative to plate median (fraction of plate median); higher = more viable cells
Conditions: 5 µM; treatment time 24 h; reporter: 7TFP
property: cell viability
Answers are plain numbers.

The examples below pair each entry with its known result.
| molecule | cell viability |
| --- | --- |
| O=C(O)c1cc(=O)c2ccccc2o1 | 0.987 |
| CCCOc1ccc(C(=O)OCCN(CC)CC)cc1N | 0.95 |
| CC(=O)OCC(=O)[C@@]1(O)CC[C@H]2[C@@H]3CCC4=CC(=O)CC[C@]4(C)[C@H]3[C@@H](O)C[C@@]21C | 1.04 |
| Cc1cc(O)c(C=O)c(O)c1C(=O)O | 0.957 |
| CCOc1ccc(Cc2nccc3cc(OCC)c(OCC)cc23)cc1OCC | 0.921 |
| Cn1ccnc1S | 0.981 |
| CC(C)CCCC(C)N (stereo unspecified) | 0.934 |
| C[C@]12CCC[C@H](O1)c1c(cc3c(c1O)C(=O)c1c(O)cc(O)cc1C3=O)O2 [Averufin (Isoform B, Compound ID 7395)] | 1.03 |

Please look at the items below and tell me cell viability for each one, in order.
1. CCC[C@H](N[C@@H](C)C(=O)N1[C@H](C(=O)O)C[C@@H]2CCCC[C@@H]21)C(=O)OCC
2. COc1c2ccoc2nc2c(OC)c(OCC(O)C(C)(C)O)ccc12 (stereo unspecified)
3. CC(NCCc1ccc(O)cc1)C(O)c1ccc(O)cc1 (stereo unspecified)

Key:
1: 0.961; 2: 1; 3: 0.933

* * *

System: HCT116
Assay: TCF/Wnt firefly luciferase reporter signal relative to plate median (fraction of plate median); higher = higher Wnt reporter signal
Conditions: 10 µM; treatment time 24 h; reporter: TCF4/Wnt
Structures can show the parent of a compound that is named as a salt.
Returns label 1 if the recorded TCF/Wnt firefly luciferase reporter signal is greater than or equal to 1, and label 0 otherwise.

For orientation, consider the following solved cases.
| compound | assignedLabel |
| --- | --- |
| CNC(=O)Nc1ccc(-c2nc(N3CC4CCC(C3)O4)c3cnn(C4CCC5(CC4)OCCO5)c3n2)cc1 | label 0 |
| CCC(=O)N1CCN(c2ccc(-n3c(=O)ccc4cnc5ccc(-c6cnc7ccccc7c6)cc5c43)cc2C(F)(F)F)CC1 | label 0 |
| CN(c1ncccc1CNc1nc(Nc2ccc3c(c2)CC(=O)N3)ncc1C(F)(F)F)S(C)(=O)=O | label 0 |
| CNC(=O)c1ccc(C)c(-n2c(C)cc(OCc3ccc(F)cc3F)c(Br)c2=O)c1 | label 0 |
| CCCCCCCCCCCCc1ccc(S(=O)(=O)Nc2nncs2)cc1 | label 1 |
| CNC(=O)c1nn(C)c2c1C(C)(C)Cc1cnc(Nc3ccc(N4CCN(C)CC4)cc3)nc1-2 | label 0 |

Exercise: Please indicate if the recorded TCF/Wnt firefly luciferase reporter signal for Cc1cn(-c2cc(NC(=O)c3ccc(C)c(Nc4nccc(-c5cccnc5)n4)c3)cc(C(F)(F)F)c2)cn1 meets or exceeds 1.
Key: label 0

Exercise: And CN1CC[C@H](c2c(O)cc(O)c3c(=O)cc(-c4ccccc4Cl)oc23)[C@H](O)C1 [Flavopiridol hydrochloride] ?
Key: label 0

Exercise: And C#Cc1cccc(Nc2ncnc3cc(OCCOC)c(OCCOC)cc23)c1 [Erlotinib HCl] ?
Key: label 0

Exercise: And O=C(NCCCNc1nc(Nc2cccc(NC(=O)N3CCCC3)c2)ncc1I)c1cccs1 ?
Key: label 1

Exercise: And Nc1cc(C(F)(F)F)c(-c2cc(N3CCOCC3)nc(N3CCOCC3)n2)cn1 ?
Key: label 0

Exercise: And Cc1cnc(NC(=O)Nc2cc(Br)c(C)cc2OC[C@@H]2CNCCO2)cn1 ?
Key: label 0

Exercise: And CCS(=O)(=O)Nc1ccc2c(c1)/C(=C(/Nc1ccc(CN3CCCCC3)cc1)c1ccccc1)C(=O)N2 ?
Key: label 0

Exercise: And Cc1cc(C)c(/C=C2\C(=O)Nc3ccccc32)[nH]1 [Semaxanib (SU5416)] ?
Key: label 0

Exercise: And CN1CCN(c2cccc(Nc3nc4c(-c5ccc(S(C)(=O)=O)cc5)cccn4n3)c2)CC1 ?
Key: label 1

Exercise: And C[C@@H](N)[C@H]1CC[C@H](C(=O)Nc2ccncc2)CC1 ?
Key: label 1

Exercise: And CNC(=O)c1cc(COc2nnc(Nc3ccc(Cl)cc3)c3ccoc23)ccn1 ?
Key: label 1

Exercise: And Cc1ccc(-n2nc(C(C)(C)C)cc2NC(=O)Nc2ccc(OCCN3CCOCC3)c3ccccc23)cc1 ?
Key: label 1

Exercise: And CCOc1ccn(-c2ccc(F)cc2)c(=O)c1C(=O)Nc1ccc(Oc2ccnc(N)c2Cl)c(F)c1 ?
Key: label 1

Exercise: And COc1ncc(-c2ccc3nccc(-c4ccnnc4)c3c2)cc1NS(=O)(=O)c1ccc(F)cc1F ?
Key: label 0

Exercise: And Cc1ccc(NC(=O)c2cccc(N(C)C)c2)cc1NC(=O)c1ccc(O)cc1 ?
Key: label 1

Exercise: And CC(=O)NCC(=O)N1[C@@H]2CC[C@H]1c1ccc(Nc3ncc(C(F)(F)F)c(NC4CCC4)n3)cc12 ?
Key: label 0

Exercise: And Cc1ccc(NC(=O)c2cccc(C(C)(C)C#N)c2)cc1Nc1ccc2ncn(C)c(=O)c2c1 ?
Key: label 1

* * *

Tested on: DLD1
Assay: TCF/Wnt firefly luciferase reporter signal relative to plate median (fraction of plate median); higher = higher Wnt reporter signal
Conditions: 10 µM; treatment time 24 h; reporter: TCF4/Wnt
Task for the reader: assign each of the following compounds its reported TCF/Wnt firefly luciferase reporter signal.
One number for each entry.

| compound | quantitativeReadout |
| --- | --- |
| O=C(Cc1ccc(-c2ccc(OCCN3CCOCC3)cc2)cn1)NCc1ccccc1 | 0.908 |

Please look at the items below and tell me TCF/Wnt firefly luciferase reporter signal for each one, in order.
1. CCOc1cc2ncc(C#N)c(Nc3ccc(F)c(Cl)c3)c2cc1NC(=O)/C=C/CN(C)C [Pelitinib (EKB-569)]
2. CC[C@@H]1C(=O)N(C)c2cnc(Nc3ccc(C(=O)NC4CCN(C)CC4)cc3OC)nc2N1C1CCCC1
3. O=C(Nc1c[nH]nc1-c1nc2ccc(CN3CCOCC3)cc2[nH]1)NC1CC1
4. O=C1NC(=O)C(c2ccccc2[N+](=O)[O-])=C1Nc1ccc(O)c(Cl)c1

Key:
1. 1.01
2. 2.25
3. 1.57
4. 1.85

Please look at the items below and tell me TCF/Wnt firefly luciferase reporter signal for each one, in order.
1. N#C/C(=C\c1ccc(O)c(O)c1)C(=O)NCc1ccccc1
2. COC(=O)Nc1ccc(-c2nc(N3CCOCC3)c3cnn(C4CCN(Cc5cccnc5)CC4)c3n2)cc1
3. NC(=O)c1ccc(-c2nc(-c3ccccn3)c(-c3ccc4c(c3)OCO4)[nH]2)cc1
4. C=CC(=O)Nc1cccc(Oc2nc(Nc3ccc(N4CCN(C)CC4)cc3)ncc2Cl)c1
5. O=C1NC(=O)/C(=C/c2ccc3nccc(-c4ccncc4)c3c2)S1

Key:
1: 1.2; 2: 0.632; 3: 1.2; 4: 0.969; 5: 0.564
